- SUBJECT_OF_TEST: furin, P09958
- Sequence (P09958 whole entry): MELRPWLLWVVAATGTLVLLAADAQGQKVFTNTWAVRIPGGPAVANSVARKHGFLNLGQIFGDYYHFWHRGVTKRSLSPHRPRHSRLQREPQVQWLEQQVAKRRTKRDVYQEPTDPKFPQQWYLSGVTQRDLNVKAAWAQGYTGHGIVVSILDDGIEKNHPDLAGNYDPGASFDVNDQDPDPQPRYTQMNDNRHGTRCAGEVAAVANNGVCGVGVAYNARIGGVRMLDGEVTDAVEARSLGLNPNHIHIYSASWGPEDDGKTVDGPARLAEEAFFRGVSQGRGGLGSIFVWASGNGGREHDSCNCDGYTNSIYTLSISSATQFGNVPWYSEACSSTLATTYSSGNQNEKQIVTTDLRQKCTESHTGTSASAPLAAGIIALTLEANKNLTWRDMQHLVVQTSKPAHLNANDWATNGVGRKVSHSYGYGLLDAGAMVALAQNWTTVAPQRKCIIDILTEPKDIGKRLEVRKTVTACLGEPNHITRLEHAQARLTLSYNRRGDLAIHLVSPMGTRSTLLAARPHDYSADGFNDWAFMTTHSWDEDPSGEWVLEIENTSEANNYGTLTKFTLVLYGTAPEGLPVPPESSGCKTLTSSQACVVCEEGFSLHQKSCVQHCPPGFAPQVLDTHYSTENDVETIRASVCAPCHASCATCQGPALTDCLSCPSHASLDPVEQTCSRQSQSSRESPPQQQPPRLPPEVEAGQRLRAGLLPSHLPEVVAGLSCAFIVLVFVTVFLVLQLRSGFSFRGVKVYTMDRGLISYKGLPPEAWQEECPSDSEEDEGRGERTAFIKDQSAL
- MEASUREMENT_NOTES: furin cleavage Z-score vs untreated control; higher = more cleavage, active = 3.5 or more, inactive = 1 or less, 8 variable residues between constant flanks;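 note: purified furin at 1:10 enzyme:substrate in 50 mM HEPES pH 7.5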
- CONDITION_SUMMARY: 7.5 min
This is one part of the list. How many sequences the whole screen found active is unknown.
Could you please classify the records by furin cleavage Z-score using these ranges: bucket 1: < 0.1; bucket 2: ≥ 0.1 and < 3; bucket 3: ≥ 3

INSERT INTO assay_data (record_sequence, classification) VALUES
  ('CALNARYSRSAGNASASA [FS-52]', 'bucket 3'),
  ('CAPALRSARSAGNASASA [FS-66]', 'bucket 2'),
  ('CARNKRSKSNAGNASASA [FS-2729]', 'bucket 3'),
  ('CAREKRDVQPAGNASASA [FS-1693]', 'bucket 3'),
  ('CARNKRSHSGAGNASASA [FS-1758]', 'bucket 3'),
  ('CARDSRSSGGAGNASASA [FS-2906]', 'bucket 1'),
  ('CAAEITGHVKAGNASASA [HC1177]', 'bucket 2'),
  ('CAVDYPYRLWAGNASASA [HC465]', 'bucket 2'),
  ('CAFLLLADARAGNASASA [HC522]', 'bucket 1'),
  ('CASKSRVSRLAGNASASA [FS-1488]', 'bucket 3'),
  ('CATYPCSGSWAGNASASA [HC1849]', 'bucket 1'),
  ('CAHVPCHRPSAGNASASA [HC2315]', 'bucket 2'),
  ('CARNKRFYGGAGNASASA [FS-1910]', 'bucket 2'),
  ('CAVTPCSAHLAGNASASA [HC2470]', 'bucket 1'),
  ('CALPARDKRAAGNASASA [FS-1026]', 'bucket 3'),
  ('CAMVPCHRPSAGNASASA [HC2306]', 'bucket 2'),
  ('CARDARMSDAAGNASASA [FS-2204]', 'bucket 1'),
  ('CARLWRKSRSAGNASASA [FS-189]', 'bucket 3'),
  ('CARDARSVRDAGNASASA [FS-2328]', 'bucket 2'),
  ('CASPIRTPRAAGNASASA [FS-1083]', 'bucket 3'),
  ('CARQCRSSQGAGNASASA [FS-2288]', 'bucket 2'),
  ('CARLVRESSGAGNASASA [FS-2999]', 'bucket 1'),
  ('CAREDRAVRDAGNASASA [FS-2413]', 'bucket 1'),
  ('CARPKRYNSGAGNASASA [FS-2437]', 'bucket 2'),
  ('CARNKRDTMVAGNASASA [FS-1862]', 'bucket 3'),
  ('CARNKKSKMDAGNASASA [FS-2497]', 'bucket 1'),
  ('CARIKRDSQGAGNASASA [FS-2338]', 'bucket 3'),
  ('CARLYVGGPLAGNASASA [HC1500]', 'bucket 1'),
  ('CARNKKQNSQAGNASASA [FS-2282]', 'bucket 2'),
  ('CAYGSRHIRLAGNASASA [FS-1107]', 'bucket 2');
